Task for the reader: assign each of the following compounds its reported LD50 at 24 h.
- assayProtocol: Toxicity in Rattus norvegicus Sprague-Dawley (rat) assessed as mortality measured after 24 hr administered orally through force feeding method
- Type: organism-based
- conditions: in vivo, po
Entry rule: numbers only, all in mg/kg.

Reported LD50 at 24 h ( CCOP(=S)(OC)O/N=C(\C#N)c1ccccc1 (racemic) ) = 1260

Reported LD50 at 24 h ( CCOP(=S)(OCC)O/N=C(\C#N)c1ccccc1 ) = 1200

Reported LD50 at 24 h ( CCOP(=S)(OC)Oc1nc(Cl)c(Cl)cc1Cl (racemic) ) = 147

Reported LD50 at 24 h ( CCOP(=S)(OCC)Oc1nc(Cl)c(Cl)cc1Cl ) = 163

Data provenance is ChEMBL document CHEMBL3046276.
